Values compiled from PubChem BioAssay AID1159580.

The entries below come with measured normalized growth values attached.
- assay procedure: chemical genetic growth profiling, strain panel (AID 1159580);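 note: tested at 20 µM; growth read once vehicle control cultures reached saturation at 30 °C; 1 = growth at the plate median or of vehicle wells; lower values mean less growth of the strain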
- stated conditions: S. cerevisiae deletion strains, growth OD, locus YHR013C, strain ard1, active compounds read low
The whole screen tested about 5,500 compounds, of which about 2,000 (36%) were called active. Inconclusive results (about 18%) are left out. This is one part of the list.
Write the number on its own, no unit after it.

Give its normalized growth value. Item: COc1ccc(Cl)cc1C(=O)NCCc1ccc(S(=O)(=O)NC(=O)NC2CCCCC2)cc1
0.969

***
Give its normalized growth value. Item: CCOC(=O)c1c(C)cc(O)cc1O
0.941

Give its normalized growth value. Item: CCCCCCC(C)OC(=O)COc1ccc(Cl)cc1Cl (configuration not stated)
0.988

Give its normalized growth value. Item: COC(=O)c1c(C)cc(O)cc1O
1.03

Give its normalized growth value. Item: NC(=NCCC[C@H](N)C(=O)O)N[N+](=O)[O-]
1.05

Give its normalized growth value. Item: C[C@H]1O[C@H](OC2[C@@H](O)[C@@H](O)C(O)[C@H](O)[C@H]2O)[C@@H](N)C[C@@H]1N=C(N)C(=O)O (some centres not stated)
0.947

Give its normalized growth value. Item: CCOC(=O)c1c(C)cc(OC)cc1O
0.969

* * *

- assay procedure: chemical genetic growth profiling, strain panel (AID 1159580);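 note: tested at 20 µM; growth read once vehicle control cultures reached saturation at 30 °C; 1 = growth at the plate median or of vehicle wells; lower values mean less growth of the strain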
- stated conditions: S. cerevisiae deletion strains, growth OD, locus YDL074C, strain BRE1
About 2,000 (36%) of roughly 5,500 compounds were called active. Not shown: some 18% with an inconclusive outcome. No stated cut-off is given here; in the data, active means normalized growth mostly below about 0.91 (no sharp cut-off); inconclusive means no clear call, values can overlap the other calls; inactive means mostly above about 0.92. Some of the results follow.
Response enum: active, inactive

Kindly provide the recorded test outcome for the following compound: CCC/C=C1\OC(=O)C2=C1CCC=C2
inactive

Kindly provide the recorded test outcome for the following compound: CC(=O)O[C@@H]1CC(=O)[C@@]2(C)C(CC(=O)[C@]3(C)C2CC[C@@]2(C)[C@H](c4ccoc4)OC(=O)C4OC423)C1(C)C (stereo partly specified)
inactive

Kindly provide the recorded test outcome for the following compound: Cc1cc(C2CCCCC2)n(O)c(=O)c1
active

Kindly provide the recorded test outcome for the following compound: COc1ccc2c(c1)CCC1C2CCC2(C)C1C[C@@H](O)C2O (stereo partly specified)
inactive

***
Kindly provide the recorded test outcome for the following compound: CC(=O)OCC1=C(C(=O)O)N2C(=O)[C@@H](NC(=O)Cc3cccs3)[C@H]2SC1
inactive

Kindly provide the recorded test outcome for the following compound: CC1(C)C(=O)C=C[C@@]2(C)C1CC(=O)[C@]1(C)C2CC[C@@]2(C)[C@H](c3ccoc3)OC(=O)[C@H]3O[C@]321 (stereo partly specified)
inactive

Kindly provide the recorded test outcome for the following compound: CCC(N)C(O)c1ccc(O)c(O)c1 (stereo unspecified)
inactive

Kindly provide the recorded test outcome for the following compound: CC12CCC3c4ccc(OC(=O)c5ccccc5)cc4CCC3C1CCC2O (stereo unspecified)
inactive

Kindly provide the recorded test outcome for the following compound: CC1CC[C@]2(NC1)O[C@H]1CC3C4CC[C@H]5C[C@@H](O)CC[C@]5(C)C4CC[C@]3(C)[C@H]1[C@@H]2C (stereo partly specified)
active

Kindly provide the recorded test outcome for the following compound: CC/C(=C(/CC)c1ccc(O)cc1)c1ccc(O)cc1
active

Kindly provide the recorded test outcome for the following compound: CC1(C)C2CC(=O)[C@]3(C)C(CC[C@@]4(C)[C@H](c5ccoc5)OC(=O)[C@H]5O[C@]543)[C@@]2(C)C(=O)C[C@H]1O (stereo partly specified)
inactive

Kindly provide the recorded test outcome for the following compound: CC1=CC(=O)C2=C(C)CC[C@@H]3[C@H](OC(=O)[C@H]3C)[C@@H]12
inactive

Kindly provide the recorded test outcome for the following compound: CC(=O)OC1CN2CCC1CC2 (stereo unspecified)
inactive

Kindly provide the recorded test outcome for the following compound: OCC(O)C(O)C(O)C(O)C(O)CO (stereo unspecified)
inactive

Kindly provide the recorded test outcome for the following compound: CN(C)c1nc(N)c(C(=O)N=C(N)N)nc1Cl
inactive

Kindly provide the recorded test outcome for the following compound: Cc1[nH]ccc2c1[nH]c1cc(=O)ccc12
inactive

Kindly provide the recorded test outcome for the following compound: CC1CC[C@@]2(OC1)O[C@H]1CC3C4CC[C@@H]5C[C@@H](O)CC[C@]5(C)C4CC[C@]3(C)[C@H]1[C@@H]2C (stereo partly specified)
inactive

Kindly provide the recorded test outcome for the following compound: NC(N)=NC(=O)c1nc(Cl)c(N2CCCCCC2)nc1N
inactive

Kindly provide the recorded test outcome for the following compound: NC(N)=NC(=O)c1nc(Cl)c(N)nc1N
inactive

Kindly provide the recorded test outcome for the following compound: NC(CSCSCC(N)C(=O)O)C(=O)O (stereo unspecified)
inactive

Kindly provide the recorded test outcome for the following compound: CC1(C)C(=O)C=C[C@@]2(C)C1C[C@@H](O)[C@]1(C)C2CC[C@@]2(C)[C@H](c3ccoc3)OC(=O)[C@H]3O[C@]321 (stereo partly specified)
inactive

* * *

- assay procedure: chemical genetic growth profiling, strain panel (AID 1159580);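 note: tested at 20 µM; growth read once vehicle control cultures reached saturation at 30 °C; 1 = growth at the plate median or of vehicle wells; lower values mean less growth of the strain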
- stated conditions: S. cerevisiae deletion strains, growth OD, locus YEL037C, strain rad23, active compounds read low
Hit rate of the full screen: of about 5,500 compounds, about 2,000 (36%) were called active. Not shown: some 18% with an inconclusive outcome. The list shows a part of the results.
endpoint label: normalized growth
Write the number on its own, no unit after it.

Example cases with answers are listed next.
Give its normalized growth value. Item: C[C@@H]1O[C@@H](OC[C@H]2OC(Oc3c(-c4ccc(OCCO)c(OCCO)c4)oc4cc(OCCO)cc(O)c4c3=O)[C@H](O)[C@@H](O)[C@@H]2O)[C@H](O)[C@H](O)[C@H]1O (some centres not stated)
0.955

Give its normalized growth value. Item: COc1cc(OC)c2c(=O)c(O)c(-c3ccc(OC)c(OC)c3)oc2c1
0.926

Give its normalized growth value. Item: COc1ccc2ccc(=O)oc2c1
1

Give its normalized growth value. Item: COc1c2ccoc2cc2oc(=O)ccc12
0.942

Give its normalized growth value. Item: COc1ccc(-c2cc(=O)c3c(O)cc(O[C@@H]4O[C@H](CO[C@H]5O[C@H](C)[C@@H](O)[C@H](O)[C@@H]5O)[C@@H](O)[C@H](O)[C@H]4O)cc3o2)cc1O
1.01

Give its normalized growth value. Item: O=c1ccc2c(O)c3ccoc3cc2o1
0.984

Give its normalized growth value. Item: COc1cc(O)c2c(=O)c(O)c(-c3ccc(O)c(O)c3)oc2c1
0.823

Give its normalized growth value. Item: CCCCCc1c2c(cc(O)c1C(=O)O)OC(=O)c1c(cc(OC)cc1C(=O)CCCC)O2
1.01

***
Give its normalized growth value. Item: C[C@@H]1O[C@@H](OC[C@H]2OC(Oc3c(-c4ccc(O)c(O)c4)oc4cc(O)cc(O)c4c3=O)[C@H](O)[C@@H](O)[C@@H]2O)[C@H](O)[C@H](O)[C@H]1O (some centres not stated)
1.01

Give its normalized growth value. Item: COc1ccccc1/C=C\C(=O)O
1

Give its normalized growth value. Item: O=c1c(O)c(-c2ccc(O)cc2O)oc2cc(O)cc(O)c12
0.989

Give its normalized growth value. Item: O=c1cc(-c2ccc(O)cc2)oc2cc(O[C@@H]3O[C@H](CO)[C@@H](O)[C@H](O)[C@H]3O)cc(O)c12
1.01

Give its normalized growth value. Item: CCCCCC(=O)Cc1cc(O)cc(O)c1C(=O)Oc1cc(CC(=O)CCCCC)c(C(=O)O)c(OC)c1
0.941

Give its normalized growth value. Item: COc1cc2occc2c2oc(=O)ccc12
1

Give its normalized growth value. Item: COc1ccc(-c2cc(=O)c3c(O)cc(O[C@H]4O[C@H](CO[C@@H]5O[C@@H](C)[C@H](O)[C@@H](O)[C@H]5O)[C@@H](O)[C@H](O)[C@H]4O)cc3o2)cc1
1.01

Give its normalized growth value. Item: COC1=CC(=O)C(C(=O)c2ccccc2)=CC1=O
0.986

Give its normalized growth value. Item: COc1ccc(-c2oc3c(CC=C(C)C)c(O[C@@H]4O[C@H](CO)[C@@H](O)[C@H](O)[C@H]4O)cc(O)c3c(=O)c2O[C@@H]2O[C@@H](C)[C@H](O)[C@@H](O)[C@H]2O)cc1
1.03

* * *

- assay procedure: chemical genetic growth profiling, strain panel (AID 1159580);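 note: tested at 20 µM; growth read once vehicle control cultures reached saturation at 30 °C; 1 = growth at the plate median or of vehicle wells; lower values mean less growth of the strain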
- stated conditions: S. cerevisiae deletion strains, growth OD, locus YNL175C, strain NOP13
The campaign covered roughly 5,500 compounds. About 2,000 (36%) were called active. Another 18% or so got no clear call; they are omitted. Cut-off read from the data, not from the text of the source: active = normalized growth mostly below about 0.91 (no sharp cut-off); inconclusive = no clear call, values can overlap the other calls; inactive = mostly above about 0.92. Some of the results follow.
Response enum: active, inactive

# example entries with known answers
Kindly provide the recorded test outcome for the following molecule: CCCCCCCCCC[Si](C)(C)CCC(=O)NC(Cc1ccc(C)cc1)c1ccccc1 (stereo not given)
inactive

Kindly provide the recorded test outcome for the following molecule: CN(C)c1nc(N)c(C(=O)N=C(N)N)nc1Cl
inactive

Kindly provide the recorded test outcome for the following molecule: NC(=NCc1ccccc1)NC(=O)c1nc(Cl)c(N)nc1N
inactive

Kindly provide the recorded test outcome for the following molecule: CC(C)[C@@]1(NC(=O)[C@@H]2C[C@@H]3c4cccc5[nH]cc(c45)C[C@H]3N(C)C2)O[C@@]2(O)[C@@H]3CCCN3C(=O)[C@H](Cc3ccccc3)N2C1=O
inactive

Kindly provide the recorded test outcome for the following molecule: CCC(CO)NC(=O)C1C=C2c3cccc4[nH]cc(c34)CC2N(C)C1 (stereo not given)
inactive

Kindly provide the recorded test outcome for the following molecule: NC(=O)OCC(COC(N)=O)c1ccccc1
inactive

***
Kindly provide the recorded test outcome for the following molecule: CN1CC(C(=O)NC2(C)OC3(O)C4CCCN4C(=O)C(Cc4ccccc4)N3C2=O)CC2c3cccc4[nH]cc(c34)CC21 (stereo not given)
inactive

Kindly provide the recorded test outcome for the following molecule: CCCCCCCCCC(=O)NC(CN1CCOCC1)[C@H](O)c1ccccc1 (stereo not given in full)
inactive
